System tested: ScLsb3
Assay: SPOT peptide array binding signal intensity (averaged, normalized) (arbitrary units (background-subtracted, floor 0; scale differs between SH3 domains)); higher = stronger binding of the SH3 domain to the peptide
Mark Yes for reported SPOT peptide array binding signal intensity of 1000 or greater; mark No for anything smaller.

[[record]]
binder = "FSRRQSMDIPSKNRN"
category_label = "No"


Hi team, for VNFRRIPTGPDSPPT , is the recorded SPOT peptide array binding signal intensity at or above 1000? No

Hi team, for LRWRHKFFLPAIAAI , is the recorded SPOT peptide array binding signal intensity at or above 1000? No

Hi team, for NPTKSPPPPPSPSTM , is the recorded SPOT peptide array binding signal intensity at or above 1000? No

Hi team, for FLIKFTPKFPQSIDH , is the recorded SPOT peptide array binding signal intensity at or above 1000? No

Hi team, for FYHRPAPKPPVTKKV , is the recorded SPOT peptide array binding signal intensity at or above 1000? No

Hi team, for RLSFFFPLDPAYIRN , is the recorded SPOT peptide array binding signal intensity at or above 1000? No

Hi team, for RRASLFPRDPKRLRP , is the recorded SPOT peptide array binding signal intensity at or above 1000? No
